Biological target: rat α3β4 nAChR (Rattus norvegicus, UniProt P04757+P12392)
Sequence (P04757 26-499 limits assumed): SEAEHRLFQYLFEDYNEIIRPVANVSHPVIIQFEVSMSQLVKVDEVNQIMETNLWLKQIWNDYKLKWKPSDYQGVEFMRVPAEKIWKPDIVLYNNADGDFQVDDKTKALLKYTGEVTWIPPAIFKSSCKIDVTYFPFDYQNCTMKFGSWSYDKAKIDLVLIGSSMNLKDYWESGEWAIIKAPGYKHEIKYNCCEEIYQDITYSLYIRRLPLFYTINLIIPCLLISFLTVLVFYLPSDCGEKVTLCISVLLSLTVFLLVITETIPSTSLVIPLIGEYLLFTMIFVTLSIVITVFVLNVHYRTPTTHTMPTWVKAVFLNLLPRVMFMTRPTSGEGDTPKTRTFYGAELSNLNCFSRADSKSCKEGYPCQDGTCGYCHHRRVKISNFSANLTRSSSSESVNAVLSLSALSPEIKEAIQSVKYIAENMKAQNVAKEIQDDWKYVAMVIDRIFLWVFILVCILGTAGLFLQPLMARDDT
Sequence (P12392 21-495 limits assumed): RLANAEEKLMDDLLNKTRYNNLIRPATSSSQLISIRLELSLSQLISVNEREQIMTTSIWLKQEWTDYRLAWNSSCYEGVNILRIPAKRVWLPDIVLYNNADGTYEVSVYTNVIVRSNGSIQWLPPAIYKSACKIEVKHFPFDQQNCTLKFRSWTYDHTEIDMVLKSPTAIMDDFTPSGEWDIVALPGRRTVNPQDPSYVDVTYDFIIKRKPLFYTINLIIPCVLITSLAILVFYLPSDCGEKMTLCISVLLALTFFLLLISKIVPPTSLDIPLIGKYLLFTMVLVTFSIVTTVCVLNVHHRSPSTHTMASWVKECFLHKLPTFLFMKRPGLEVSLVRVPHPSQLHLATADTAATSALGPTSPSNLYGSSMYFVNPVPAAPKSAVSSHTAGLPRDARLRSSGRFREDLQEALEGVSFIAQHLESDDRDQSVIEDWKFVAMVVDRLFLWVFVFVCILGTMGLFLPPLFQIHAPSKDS
Experiment: cell-based
Conditions: α3β4 IC50 (half-blocking dose)
Peptide text beside a SMILES is read from it.
Quantity: pIC50
Answer as the number alone; pIC50 is minus log10 of concentration in mol/L.

Challenge: Answer with the recorded pIC50 of CC[C@H](C)[C@@H]1NC(=O)[C@@H]2CCCN2C(=O)[C@H](Cc2ccc(O)cc2)NC(=O)[C@H](CCSC)NC(=O)[C@H](C)NC(=O)[C@H](CO)NC(=O)[C@@H]2CSSC[C@H](NC(=O)CN)C(=O)N[C@@H](CSSC[C@@H](C(N)=O)NC1=O)C(=O)N[C@@H](CO)C(=O)N[C@@H](Cc1c[nH]cn1)C(=O)N1CCC[C@H]1C(=O)N[C@@H](C(C)C)C(=O)N2 [TxID[S12Y]] (HELM PEPTIDE1{G.C.C.S.H.P.V.C.S.A.M.Y.P.I.C.[am]}$PEPTIDE1,PEPTIDE1,2:R3-8:R3|PEPTIDE1,PEPTIDE1,3:R3-15:R3$$$V2.0) only.
Response given: 8.04
